Assembled from different publications: pIC50 for UniProtKB Q02880.
Sequence (Q02880 whole entry): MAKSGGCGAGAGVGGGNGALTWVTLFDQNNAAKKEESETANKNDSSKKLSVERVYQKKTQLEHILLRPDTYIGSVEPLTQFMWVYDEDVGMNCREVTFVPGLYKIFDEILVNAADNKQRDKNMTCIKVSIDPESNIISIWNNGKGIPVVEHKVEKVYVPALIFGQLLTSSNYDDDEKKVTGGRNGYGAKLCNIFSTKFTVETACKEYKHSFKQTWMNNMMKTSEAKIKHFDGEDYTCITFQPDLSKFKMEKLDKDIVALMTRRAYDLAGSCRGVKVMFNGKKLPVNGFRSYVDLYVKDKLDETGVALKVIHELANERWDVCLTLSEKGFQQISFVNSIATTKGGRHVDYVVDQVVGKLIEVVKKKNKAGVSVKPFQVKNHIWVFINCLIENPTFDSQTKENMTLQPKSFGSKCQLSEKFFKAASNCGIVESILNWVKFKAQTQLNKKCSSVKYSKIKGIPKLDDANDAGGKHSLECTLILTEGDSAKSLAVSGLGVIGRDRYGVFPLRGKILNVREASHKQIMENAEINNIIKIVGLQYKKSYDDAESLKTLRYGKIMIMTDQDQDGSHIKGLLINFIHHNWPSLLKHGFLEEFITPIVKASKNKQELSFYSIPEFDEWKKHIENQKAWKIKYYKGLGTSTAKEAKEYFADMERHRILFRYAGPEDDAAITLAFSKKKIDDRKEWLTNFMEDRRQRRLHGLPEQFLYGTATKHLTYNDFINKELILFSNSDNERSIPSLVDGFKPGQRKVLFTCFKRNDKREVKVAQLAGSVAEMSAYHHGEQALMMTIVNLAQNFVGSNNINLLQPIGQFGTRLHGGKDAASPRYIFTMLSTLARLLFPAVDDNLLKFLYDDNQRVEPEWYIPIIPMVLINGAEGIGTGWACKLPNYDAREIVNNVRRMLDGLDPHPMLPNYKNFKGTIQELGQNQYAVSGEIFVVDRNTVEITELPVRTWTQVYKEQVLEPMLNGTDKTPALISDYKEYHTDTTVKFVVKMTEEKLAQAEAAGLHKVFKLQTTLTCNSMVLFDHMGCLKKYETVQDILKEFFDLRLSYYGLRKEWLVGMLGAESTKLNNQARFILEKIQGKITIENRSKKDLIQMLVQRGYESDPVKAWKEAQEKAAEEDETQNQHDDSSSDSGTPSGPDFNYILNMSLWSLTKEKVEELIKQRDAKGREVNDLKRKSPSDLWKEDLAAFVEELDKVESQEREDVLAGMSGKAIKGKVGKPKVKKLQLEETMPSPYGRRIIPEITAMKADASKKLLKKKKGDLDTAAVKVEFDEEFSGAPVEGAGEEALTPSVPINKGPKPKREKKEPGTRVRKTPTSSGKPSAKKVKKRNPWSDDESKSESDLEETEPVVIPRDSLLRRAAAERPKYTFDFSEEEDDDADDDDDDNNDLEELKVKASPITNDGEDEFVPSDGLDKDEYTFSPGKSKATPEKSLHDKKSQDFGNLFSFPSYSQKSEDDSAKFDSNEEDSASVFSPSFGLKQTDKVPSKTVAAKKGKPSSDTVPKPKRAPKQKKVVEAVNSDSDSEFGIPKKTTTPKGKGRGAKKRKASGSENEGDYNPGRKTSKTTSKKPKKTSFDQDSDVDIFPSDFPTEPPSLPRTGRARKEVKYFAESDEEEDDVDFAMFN
pIC50: −log10 of the molar value.
Measure name: pIC50

COc1cccc2c1C(=O)c1c(O)c3c(c(O)c1C2=O)C[C@@](O)(C(=O)CO)C[C@@H]3O[C@H]1C[C@H](N)[C@H](O)[C@H](C)O1	5.46
COc1cc(C2=N/C(=C\c3cc(Br)cc(Br)c3OC(C)=O)C(=O)n3c(C)nc(=S)n32)cc(OC)c1OC	6.96
Cc1cc(NC2=NC(=O)/C(=C\c3c4ccccc4cc4ccccc34)S2)no1	6.89
Cc1[nH]c(C(=O)Nc2ccc(C(N)=O)cc2OCc2ccc(C(=O)NCCN)cc2)c(Cl)c1Cl.Cl.Cl	6.26
O=C(/C=C/c1ccccc1)Nc1ccc(/C=C/c2cc(O)cc(O)c2)cc1	3.71
